# tested_target: Cytochrome P450 2C19 (Homo sapiens)
# measurement_protocol: blockers of cytochrome P450 2C19 activity – biochemical, luminescence, ADME assay, primary screen (AID 778)
# conditions_used: CYP2C19 Supersomes, luciferin-H EGE luminescence, 30 min; at 5 µM
In all, about 96,000 compounds went through this assay and about 20,000 (21%) were called active.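 How the source made its calls: active means CYP2C19 inhibition above a set limit at 5 µM in the primary screen (cut at about 50% in these data); inactive means the rest.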 Only a sample is shown.
Labels: active, inactive

{"columns": ["compound", "assigned_label"],
 "data": [
  ["COc1ccc(NC(=O)CC2COc3ccccc3O2)c(OC)c1 (stereo not drawn)", "active"],
  ["N/C(=N\\OC(=O)CCc1ccccc1)c1ccc(Cl)cc1", "inactive"],
  ["COc1ccccc1NS(=O)(=O)N(C)C", "inactive"],
  ["CC(=O)NS(=O)(=O)c1ccccc1", "inactive"],
  ["Cc1c(C(=O)NCc2ccccc2)cnn1-c1ccccc1", "inactive"],
  ["COc1ccc(/C(N)=N/OC(=O)Oc2ccccc2)cc1", "active"],
  ["COc1ccc(NC(=O)CCNC(=O)Cn2ccc3ccccc3c2=O)c(OC)c1", "inactive"],
  ["Cn1c(NC(=O)c2ccco2)c(-c2ccccc2Cl)c(=O)c2ccccc21", "inactive"],
  ["COc1ccc2c(c1)C(C)=CC(C)(C)N2C(=O)CNCc1ccc2c(c1)OCO2", "active"],
  ["Cc1ccc(S(=O)(=O)NCCSC(C)(C)C)cc1", "inactive"],
  ["Cc1cc(NC(=O)CCC2COc3ccccc3O2)no1 (stereo not drawn)", "inactive"],
  ["CC(C)NC(=O)CSc1nnc(COc2ccccc2Cl)o1", "active"],
  ["Cc1ccc(N2CCN(c3ccc(C)cc3)C2c2ccccn2)cc1", "inactive"]
]}
